Target: menin protein (Homo sapiens (Human))
Experiment: biochemical
Type: binding
Conditions: FP competitive binding; menin protein 4 nM, FAM-MM2 probe 2 nM; read-out: Menin Binding Affinity IC50
EXPERIMENTAL_READOUT: IC50 (µM)

COC(=O)N[C@H]1CCC[C@@H]1C(C#N)(c1ccccc1)C1CCN(CC2CN(c3ccc(S(=O)(=O)c4ccc(C(=O)O)cc4)cc3)C2)CC1 (mixture of isomers): 0.015
CNC(=O)O[C@H]1CCC[C@@H]1C(C#N)(c1ccccc1)C1CCN(CC2CN(c3ccc([N+](=O)[O-])cc3)C2)CC1 (mixture of isomers): 0.013
CC(=O)O[C@@H]1CCC[C@H]1C(C#N)(c1ccccc1)C1CCN(CC2CN(c3ccc(S(C)(=O)=O)cc3)C2)CC1 (mixture of isomers): 2.6
CS(=O)(=O)C[C@@H]1CCC[C@H]1C(C#N)(c1ccccc1)C1CCN(CC2CN(c3ccc(S(=O)(=O)c4ccncc4)cc3)C2)CC1 (mixture of isomers): 3.3
CNC(=O)O[C@H]1CCC[C@@H]1C(C#N)(c1ccccc1)C1CCN(CC2(C)CN(c3ccc(S(=O)(=O)c4cnn(C)c4)cc3)C2)CC1 (mixture of isomers): 0.048
CNC(=O)O[C@@H]1CCC[C@H]1C(C#N)(c1ccccc1)C1CCN(CC2CN(c3ccc(S(=O)(=O)c4ccn(C)n4)cc3)C2)CC1 (mixture of isomers): 0.068
CNC(=O)C[C@@H]1CCC[C@H]1C(C#N)(c1ccccc1)C1CCN(CC2CN(c3ccc(S(=O)(=O)c4ccncc4)cc3)C2)CC1 (mixture of isomers): 5.2
Cn1cc(S(=O)(=O)c2ccc(N3CC(CN4CCC(C(CN5CCCC5)(C5=CCCC5)c5ccccc5)CC4)C3)cc2)cn1 (stereo not shown): 0.032
COC(=O)N1Cc2ccccc2C(C2CCN(CCCOc3ccc(C#N)cc3)CC2)([C@H]2CCC[C@@H]2OC)C1 (mixture of isomers): 9.6
CO[C@@H]1CCC[C@H]1C(C#N)(c1ccccc1)C1CCN(CCCOc2ccc(C#N)cc2)CC1 (mixture of isomers): 8.8
N#Cc1ccc(OCCCN2CCC(C3NCCc4ccccc43)CC2)cc1 (stereo not shown): 42.1
COC(=O)N[C@H]1CCC[C@@H]1C(C#N)(c1ccccc1)C1CCN(CC2CN(c3ccc(S(=O)(=O)C4CC4)cc3)C2)CC1 (mixture of isomers): 0.031
CN1CCc2ccccc2C1(C1CCCC1)C1CN(CCCCCOc2ccc(C#N)cc2)C1 (stereo not shown): 6

###

Biological target: menin protein (Homo sapiens (Human), UniProt O00255)
Sequence (O00255 whole entry): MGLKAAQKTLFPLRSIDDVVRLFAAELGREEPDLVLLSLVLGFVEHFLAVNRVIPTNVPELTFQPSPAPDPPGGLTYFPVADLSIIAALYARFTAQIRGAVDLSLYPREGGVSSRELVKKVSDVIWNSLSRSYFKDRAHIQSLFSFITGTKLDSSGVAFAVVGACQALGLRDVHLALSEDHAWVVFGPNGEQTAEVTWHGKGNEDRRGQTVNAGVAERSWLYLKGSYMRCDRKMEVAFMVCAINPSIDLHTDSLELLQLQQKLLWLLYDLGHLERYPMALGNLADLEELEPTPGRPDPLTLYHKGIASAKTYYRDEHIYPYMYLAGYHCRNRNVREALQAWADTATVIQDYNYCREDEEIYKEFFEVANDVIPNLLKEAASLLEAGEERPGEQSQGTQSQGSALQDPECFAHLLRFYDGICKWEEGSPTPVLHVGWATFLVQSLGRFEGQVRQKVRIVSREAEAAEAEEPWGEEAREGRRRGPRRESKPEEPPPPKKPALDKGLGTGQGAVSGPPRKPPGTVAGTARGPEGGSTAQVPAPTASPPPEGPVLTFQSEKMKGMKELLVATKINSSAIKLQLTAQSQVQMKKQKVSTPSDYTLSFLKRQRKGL
Experiment: biochemical
Type: binding
Conditions: FP competitive binding; menin protein 4 nM, FAM-MM2 probe 2 nM; read-out: Menin Binding Affinity IC50
EXPERIMENTAL_READOUT: IC50 (nM)

CO[C@H]1CCC[C@@H]1C(C#N)(c1ccccc1)C1CCN(CC2CN(c3ccc(S(C)(=O)=O)cc3)C2)CC1 (mixture of isomers) [compound 181]: 18100
CNC(=O)N[C@@H]1CCC[C@H]1C(C#N)(c1ccccc1)C1CCN(CC2CN(c3ccc(S(=O)(=O)c4ccncc4)cc3)C2)CC1 (mixture of isomers) [compound 270]: 881
CN1Cc2cccc(Cl)c2C(C2CCCC2)(C2CCN(CCCOc3ccc(C#N)cc3)CC2)C1 (stereo not drawn) [compound 34]: 1800

###

Target: menin protein (Homo sapiens (Human))
Assay: biochemical
Assay type: binding
Details: FP competitive binding; menin protein 4 nM, FAM-MM2 probe 2 nM; read-out: Menin Binding Affinity IC50
Labelling field: enter Yes if recorded IC50 is less than 2000 nM. Enter No if it equals or exceeds that cut-off.

N#Cc1ccc(OCCCN2CCC(C3(C4CCCC4)NCCc4cc(F)ccc43)CC2)cc1 (stereo not shown): Yes
CNC(=O)O[C@H]1CCC[C@@H]1C(Cn1ccnc1C)(c1cccc(F)c1)C1CCN(CC2CN(c3ccc(Cl)cc3)C2)CC1 (mixture of isomers): Yes
CC(=O)N1CCCCC1C1(C2CCN(CCCOc3ccc(C#N)cc3)CC2)CN(C)Cc2ccccc21 (stereo not shown): No
N#Cc1ccc(OCCCN2CCC(C(C#N)(c3ccccc3)C3CCCCC3)CC2)cc1 (stereo not shown): No
COC(=O)N1Cc2ccccc2C(C2CCN(CCCOc3ccc(C#N)cc3)CC2)([C@@H]2CCC[C@H]2OC)C1 (mixture of isomers): No
N#Cc1ccc(OCCCN2CCC(C(CN)(c3ccccc3)C3CCCC3)CC2)cc1 (stereo not shown): Yes
CNC(=O)N[C@@H]1CCC[C@H]1C1(C2CCN(CC3CN(c4ccc(S(=O)(=O)c5ccncc5)cc4)C3)CC2)CN(C)Cc2ccccc21 (mixture of isomers): Yes
N#Cc1ccc(OCCCN2CCC(C3(C4CCCC4)NCCc4ccc(F)cc43)CC2)cc1 (stereo not shown): Yes
CC(=O)O[C@H]1CCC[C@@H]1C(C#N)(c1ccccc1)C1CCN(CC2CN(c3ccc(C(=O)O)cc3)C2)CC1 (mixture of isomers): No
O=C(CN1CCC(C2(C3CCCC3)NCCc3ccccc32)CC1)N1Cc2ccccc2C1 (stereo not shown): No

###

Target: menin protein (Homo sapiens (Human))
Experiment: biochemical
Type: binding
Settings: FP competitive binding; menin protein 4 nM, FAM-MM2 probe 2 nM; read-out: Menin Binding Affinity IC50
EXPERIMENTAL_READOUT: IC50 (nM)

CC(C)CCC1(C2CCN(CCCOc3ccc(C#N)cc3)CC2)NCCc2ccccc21 (stereo not shown): 4700
N#Cc1ccc(OCCCN2CCC(C3(C4CCCC4)NCCc4sccc43)CC2)cc1 (stereo not shown): 59
COC(=O)N[C@@H]1CCC[C@H]1C(C#N)(c1ccccc1)C1CCN(CC2CN(c3ccc(S(=O)(=O)c4ccccc4)cc3)C2)CC1 (mixture of isomers): 819
CCN1Cc2ccccc2C(C2CCCC2)(C2CCN(CC3CN(c4ccc(S(=O)(=O)CC)cc4)C3)CC2)C1 (stereo not shown): 9
CC(=O)O[C@@H]1CCC[C@H]1C(C#N)(c1ccccc1)C1CCN(CC2CN(c3ccc(S(=O)(=O)c4ccncc4)cc3)C2)CC1 (mixture of isomers) [compound 207]: 2800
CC(=O)N[C@H]1CCC[C@@H]1C(C#N)(c1ccccc1)C1CCN(CC2CN(c3ccc(S(=O)(=O)c4ccncc4)cc3)C2)CC1 (mixture of isomers): 10
N#Cc1cc2cc(C(=O)N[C@H]3CC[C@H](C4(C5CCCC5)NCCc5ccccc54)CC3)ccc2[nH]1 (stereo partly shown): 11600
CNC(=O)O[C@@H]1CCC[C@H]1C(C#N)(c1ccccc1)C1CCN(CC2CN(c3ccc(S(=O)(=O)c4cnn(C)c4)cc3)C2)CC1 (mixture of isomers): 849
CCN1Cc2ccccc2C(C2CCCC2)(C2CCN(CC3CN(c4ccc(S(=O)(=O)c5ccncc5)cc4)C3)CC2)C1 (stereo not shown): 6
C[C@@H]1CC(C(C#N)(c2ccccc2)C2CCCC2)C[C@H](C)N1CCCOc1ccc(C#N)cc1 (stereo partly shown): 13100
CC(=O)N[C@@H]1CCC[C@H]1C1(C2CCN(CC3CN(c4ccc(S(=O)(=O)c5ccncc5)cc4)C3)CC2)CN(C)Cc2ccccc21 (mixture of isomers): 180
CNC(=O)O[C@H]1CCC[C@@H]1C(C#N)(c1ccccc1)C1CCN(CC2CN(c3ccc(C(C)(C)C)cc3)C2)CC1 (mixture of isomers): 28
CC(=O)O[C@@H]1CCC[C@H]1C(C#N)(c1ccccc1F)C1CCN(CC2CN(c3ccc(S(=O)(=O)C4CC4)cc3)C2)CC1 (mixture of isomers): 5700

###

Molecular target: menin protein (Homo sapiens (Human))
Assay: biochemical
Assay type: binding
Settings: FP competitive binding; menin protein 4 nM, FAM-MM2 probe 2 nM; read-out: Menin Binding Affinity IC50
Labelling field: enter y if recorded IC50 is less than 9 nM. Enter n if it equals or exceeds that cut-off.

CNC(=O)O[C@H]1CCC[C@@H]1C(C#N)(c1ccccc1)C1CCN(CC2CN(c3ccc(S(=O)(=O)c4ccn(C)n4)cc3)C2)CC1 (mixture of isomers): y
CN1Cc2cccc(F)c2C(C2CCCC2)(C2CCN(CC3CN(c4ccc(C#N)cc4)C3)CC2)C1 (stereo not shown): n
O=C(c1ccn(-c2ccc(S(=O)(=O)C3CC3)cc2)c1)N1CCC(C2(C3CCCC3)NCCc3ccccc32)CC1 (stereo not shown): n
CNC(=O)O[C@H]1CCC[C@@H]1C(Cn1ccnc1C)(c1cccc(F)c1)C1CCN(CC2CN(c3ccc(S(=O)(=O)c4cnn(C)c4)cc3)C2)CC1 (mixture of isomers): y
Cc1cc(C#N)ccc1N1CC(CN2CCC(C3(C4CCCC4)NCCc4ccccc43)CC2)C1 (stereo not shown): n
CNC(=O)O[C@@H]1CCC[C@H]1C(C#N)(c1ccccc1)C1CCN(CCCOc2ccc(C#N)cc2)CC1 (mixture of isomers): n

###

Target: menin protein (Homo sapiens (Human), UniProt O00255)
Test: biochemical
Format: binding
Conditions: FP competitive binding; menin protein 4 nM, FAM-MM2 probe 2 nM; read-out: Menin Binding Affinity IC50
pIC50: −log10 of the molar value.
EXPERIMENTAL_READOUT: pIC50

CNC(=O)O[C@@H]1CCC[C@H]1C(Cn1ccnc1)(c1ccccc1)C1CCN(CC2CN(c3ccc(C#N)cc3)C2)CC1 (mixture of isomers) [compound 365]: 6.55
N#Cc1cc2cc(CCN3CCC(C4(C5CCCC5)NCCc5ccccc54)CC3)ccc2[nH]1 (stereo not drawn) [compound 66]: 5.96
N#CC(c1ccccc1)(C1CCN(CC2CN(c3ccc(S(=O)(=O)c4ccncc4)cc3)C2)CC1)[C@@H]1CCC[C@H]1OC(=O)C1CCC1 (mixture of isomers) [compound 208]: 6.36
CNC(=O)O[C@H]1CCC[C@@H]1C(Cn1ccnc1)(c1ccccc1)C1CCN(CC2CN(c3ccc(S(=O)(=O)c4cnn(C)c4)cc3)C2)CC1 (mixture of isomers) [compound 238]: 8.10
COCC(C1CC1)C(C#N)(c1ccccc1)C1CCN(CCCOc2ccc(C#N)cc2)CC1 (stereo not drawn) [compound 329]: 4.72
CS(=O)(=O)c1ccc(N2CC(CN3CCC(C(C#N)(c4ccccc4)[C@H]4CCC[C@H]4S(C)(=O)=O)CC3)C2)cc1 (mixture of isomers) [compound 182]: 4.63
